# Measured on: N-terminal His6-tagged Mdm225-117 (Homo sapiens)
# Construct: 25-117 fusion protein; made in house; host or cells: E. coli BL21 DE3 pLySS, pET-14B vector
# Test description: Fluorescence polarization competitive binding assay with fluorescein labeled p53 peptide (Flu-p53)
# Particulars: read-out: ligand for Mdm2 (affinity)
Experimental endpoint: Kd (µM)
Answer in µM, number only, no unit symbol.

Input: Fill in: Kd of CC(C)C[C@@H](C(N)=O)N1CCN(C(=O)[C@H](Cc2c[nH]c3ccccc23)N2CCN[C@@H](Cc3ccc(O)cc3)C2=O)[C@@H](Cc2ccccc2)C1=O is ___
Output: 0.4
